procedure_details: Pharmacokinetics following single intravenous and oral gavage dosing (AUC0-24h)
Type: in vivo
test_parameters: mouse, plasma; single oral dose 30 mg/Kg, male CD-1 mice
AUC(0-t) values by entry
Give the value in ng·h/mL but do not write ng·h/mL after it.

Consider the reported AUC(0-t) for these compounds:
compound: CCc1c(F)ccc2cc(O)cc(-c3ncc4c(N5CCCC6(CCO6)C5)nc(OCC5(CN6CCC(CN7CCC(N8CCN(c9ccc%10c(c9)CN([C@H]9CCC(=O)NC9=O)C%10=O)CC8)CC7)CC6)CC5)nc4c3F)c12 (stereo partly drawn)
assay_result: 170

compound: CCc1c(F)ccc2cc(O)cc(-c3ncc4c(N5CCC[C@]6(CCO6)C5)nc(OCC5(CN6CCC7(CCC(N8CCN(c9ccc%10c(c9)CN([C@H]9CCC(=O)NC9=O)C%10=O)CC8)CC7)CC6)CC5)nc4c3F)c12
assay_result: 718

compound: CCc1c(F)ccc2cc(O)cc(-c3ncc4c(N5CCC[C@@](C)(O)C5)nc(OCC5(CN6CCC(C)(CN7CCN(C8CCN(c9ccc%10c(c9)CN(C9CCC(=O)NC9=O)C%10=O)CC8)CC7)CC6)CC5)nc4c3F)c12 (stereo partly drawn)
assay_result: 399

compound: CCc1c(F)ccc2cc(O)cc(-c3ncc4c(N5CCC[C@@](C)(O)C5)nc(OCC5(CN6CCC7(CC6)CC(F)(CN6CCN(c8ccc9c(c8)CN([C@H]8CCC(=O)NC8=O)C9=O)CC6)C7)CC5)nc4c3F)c12
assay_result: 982

compound: CCc1c(F)ccc2cc(O)cc(-c3ncc4c(N5CCC[C@@](C)(O)C5)nc(OCC5(CN6CCC(C)(CN7CC8(CCN(c9ccc%10c(c9)CN([C@H]9CCC(=O)NC9=O)C%10=O)CC8)C7)CC6)CC5)nc4c3F)c12
assay_result: 652

compound: CCc1c(F)ccc2cc(O)cc(-c3ncc4c(N5CCC[C@@](C)(O)C5)nc(OCC5(CN6CCC(OC7CC8(CCN(c9ccc%10c(c9)CN(C9CCC(=O)NC9=O)C%10=O)CC8)C7)CC6)CC5)nc4c3F)c12 (stereo partly drawn)
assay_result: 4900

Exercise: What value of measured AUC(0-t) is listed for CCc1c(F)ccc2cc(O)cc(-c3ncc4c(N5CCC[C@@](C)(O)C5)nc(OCC5(CN6CCC(C)(CN7CCC(N8CCN(c9ccc%10c(c9)CN([C@H]9CCC(=O)NC9=O)C%10=O)CC8)CC7)CC6)CC5)nc4c3F)c12 ?
Solution: 1360

Exercise: What value of measured AUC(0-t) is listed for CCc1c(F)ccc2cc(O)cc(-c3ncc4c(N5CCC[C@@](C)(O)C5)nc(OCC5(CN6CCC(C)(CN7CCN(c8ccc9c(c8)CN([C@H]8CCC(=O)NC8=O)C9=O)CC7)CC6)CC5)nc4c3F)c12 ?
Solution: 3250

Exercise: What value of measured AUC(0-t) is listed for CCc1c(F)ccc2cc(O)cc(-c3ncc4c(N5CCC[C@@](C)(O)C5)nc(OCC5(CN6CC7(CCC(N8CCN(c9cc(F)c(C%10CCC(=O)NC%10=O)c(F)c9)CC8)CC7)C6)CC5)nc4c3F)c12 (stereo partly drawn) ?
Solution: 1780

---

assayed_target: KRAS-G12V/RAF1 (Homo sapiens (Human), UniProt P01116, G12V)
Sequence (P01116-2 other isoform, or with tags, fused parts or gaps G12V): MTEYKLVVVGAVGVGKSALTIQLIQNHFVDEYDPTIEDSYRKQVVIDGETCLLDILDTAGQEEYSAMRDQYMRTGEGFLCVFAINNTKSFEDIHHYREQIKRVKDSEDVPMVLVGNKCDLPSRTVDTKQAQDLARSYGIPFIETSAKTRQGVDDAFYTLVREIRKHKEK
procedure_details: KRAS/RAF1 binding inhibition assay (AlphaScreen)
pIC50: −log10 of the molar value.
pIC50 values by entry

Consider the reported pIC50 for these compounds:
compound: CCc1c(F)ccc2cc(O)cc(-c3ncc4c(N5CCC[C@@](C)(O)C5)nc(OCC5(CN6CC(N7CCC8(CC7)CN(c7ccc9c(c7)CN(C7CCC(=O)NC7=O)C9=O)C8)C6)CC5)nc4c3F)c12 (stereo partly drawn)
pIC50: 6.70 to 7.70
//
compound: CCc1c(F)ccc2cc(O)cc(-c3ncc4c(N5CCC[C@]6(CCO6)C5)nc(OCC5(CN6CCC7(CC6)CC(N6CCN(c8ccc9c(c8)CN([C@H]8CCC(=O)NC8=O)C9=O)CC6)C7)CC5)nc4c3F)c12
pIC50: 6.70 to 7.70

Please look at the following compound next.
Exercise: Form: Entry = CCc1c(F)ccc2cc(O)cc(-c3ncc4c(N5CCCC(C)(O)C5)nc(OCC5(CN6CCC7(CC6)CCC(C)(N6CCN(c8ccc9c(c8)CN(C8CCC(=O)NC8=O)C9=O)CC6)CC7)CC5)nc4c3F)c12 (stereo in doubt) | System = KRAS-G12V/RAF1 (Homo sapiens (Human), UniProt P01116, G12V) | pIC50 = ____
Solution: > 7.70

---

pIC50 values by entry
assayed_target: KRAS-G12V/RAF1 (Homo sapiens (Human), UniProt P01116, G12V)
procedure_details: KRAS/RAF1 binding inhibition assay (AlphaScreen)
pIC50: −log10 of the molar value.

compound: C#Cc1c(F)ccc2cc(N)cc(-c3ncc4c(N5CCC[C@@](C)(O)C5)nc(OCC5(CN6CCC(CN7CCN(c8ccc9c(c8)CN([C@H]8CCC(=O)NC8=O)C9=O)CC7)CC6)CC5)nc4c3F)c12 [Compound 118]
assayed_target: KRAS-G12V/RAF1 (Homo sapiens (Human), UniProt P01116, G12V)
pIC50: < 6.70
--
compound: CCc1c(F)ccc2cc(O)cc(-c3ncc4c(N5CCC[C@@](C)(O)C5)nc(OCC5(CN6CCC7(CC6)CC(OC6CCN(c8ccc9c(c8)CN(C8CCC(=O)NC8=O)C9=O)CC6)C7)CC5)nc4c3F)c12 (stereo partly drawn) [Compound 176]
assayed_target: KRAS-G12V/RAF1 (Homo sapiens (Human), UniProt P01116, G12V)
pIC50: 6.70 to 7.70
--
compound: CCc1c(F)ccc2cc(O)cc(-c3ncc4c(N5CCC[C@@](C)(O)C5)nc(OCC5(CN6CCC(N7CCC8(CCN(c9ccc%10c(c9)CN(C9CCC(=O)NC9=O)C%10=O)CC8)CC7)CC6)CC5)nc4c3F)c12 (stereo partly drawn) [Compound 145]
assayed_target: KRAS-G12V/RAF1 (Homo sapiens (Human), UniProt P01116, G12V)
pIC50: > 7.70
--
compound: CCc1c(F)ccc2cc(O)cc(-c3ncc4c(N5CCC[C@@](C)(O)C5)nc(OCC5(CN6CCC(F)(CN7CCN(c8ccc9c(c8)CN([C@H]8CCC(=O)NC8=O)C9=O)CC7)CC6)CC5)nc4c3F)c12 [Compound 8]
assayed_target: KRAS-G12V/RAF1 (Homo sapiens (Human), UniProt P01116, G12V)
pIC50: 6.70 to 7.70

Exercise: Form: Entry = CCc1c(F)ccc2cc(O)cc(-c3ncc4c(N5CCC[C@@](C)(O)C5)nc(OCC5(CN6CCC(F)(CN7CCC(N8CCN(c9ccc%10c(c9)CN([C@H]9CCC(=O)NC9=O)C%10=O)CC8)CC7)CC6)CC5)nc4c3F)c12 [Compound 72] | System = KRAS-G12V/RAF1 (Homo sapiens (Human), UniProt P01116, G12V) | pIC50 = ____
Solution: > 7.70

Exercise: Form: Entry = C[C@@]1(O)CCCN(c2nc(OCC3(CN4CCC5(CC4)CC(CN4CCN(c6ccc7c(c6)CN([C@H]6CCC(=O)NC6=O)C7=O)CC4)C5)CC3)nc3c(F)c(-c4cc(O)cc5ccc(F)c(F)c45)ncc23)C1 [Compound 103] | System = KRAS-G12V/RAF1 (Homo sapiens (Human), UniProt P01116, G12V) | pIC50 = ____
Solution: 6.70 to 7.70

---

assayed_target: KRAS-G12V/RAF1 (Homo sapiens (Human), UniProt P01116, G12V)
procedure_details: KRAS/RAF1 binding inhibition assay (AlphaScreen)
pIC50: −log10 of the molar value.
endpoint: pIC50

molecule: CCc1cccc2cc(O)cc(-c3ncc4c(N5CCC[C@@](C)(O)C5)nc(OCC5(CN6CC[C@@H](CN7CC8(CCN(c9ccc%10c(c9)CN(C9CCC(=O)NC9=O)C%10=O)CC8)C7)C6)CC5)nc4c3F)c12 (stereo partly shown)
endpoint: pIC50
assay_result: > 7.70
//
molecule: CCc1c(F)ccc2cc(O)cc(-c3ncc4c(N5CCC[C@@](C)(O)C5)nc(OCC5(CN6CCC(N7CCC8(CC7)CN(c7ccc9c(c7)CN(C7CCC(=O)NC7=O)C9=O)C8)CC6)CC5)nc4c3F)c12 (stereo partly shown)
endpoint: pIC50
assay_result: 6.70 to 7.70
//
molecule: CCc1cccc2cc(O)cc(-c3ncc4c(N5CCOC[C@@](C)(O)C5)nc(OCC5(CN6CCC7(CC6)CC(CN6CCN(c8ccc9c(c8)CN([C@H]8CCC(=O)NC8=O)C9=O)CC6)C7)CC5)nc4c3F)c12
endpoint: pIC50
assay_result: 6.70 to 7.70

Exercise: What value of measured pIC50 is listed for CCc1c(F)ccc2cc(O)cc(-c3ncc4c(N5CCCn6nc(C(=O)N(C)C)c(Cl)c6C5)nc(OCC5(CN6CCC7(CC6)CC(CN6CCN(c8ccc9c(c8)CN([C@H]8CCC(=O)NC8=O)C9=O)CC6)C7)CC5)nc4c3F)c12 ?
Solution: < 6.70
